test system: UACC-62; test: NCI tumour cell line growth inhibition, 48 h
Activity calls are given as the source filed them. Cut-off read from the data, not from the text of the source: active = GI50 up to about 1.1 µM and inactive = higher.
Reported GI50 values follow for various compounds

Fc1cccc(Cl)c1C1SCc2nc3ccccc3n21 (stereo unspecified) ... 15.7 µM (inactive)

Q: Requested field: GI50. Item: "N/C(=N\Nc1ccc(S(N)(=O)=O)cc1)c1cnccn1"
Result: > 100 µM (inactive)

Q: Requested field: GI50. Item: "c1ccc(/N=C(/Nc2ccccc2)N2CCCCC2)cc1"
Result: 77.4 µM (inactive)

Q: Requested field: GI50. Item: "Cc1cc(C#N)c(Nc2ccc(F)cc2[N+](=O)[O-])s1"
Result: > 100 µM (inactive)

Q: Requested field: GI50. Item: COC1OC(CO)C(O)C(OC(=O)c2cc(O)c(O)c(O)c2)C1OC(=O)c1cc(O)c(O)c(O)c1 (stereo unspecified)
Result: > 10 µM (inactive)

Q: Requested field: GI50. Item: COC(=O)C12C3C4C1C1C2C3C41C(=O)N(C(C)C)C(C)C (stereo unspecified)
Result: > 100 µM (inactive)

---

test system: 786-0; assay: NCI tumour cell line growth inhibition, 48 h
Active and inactive are the calls of the source. Cut-off read from the data, not from the text of the source: active = GI50 up to about 1.1 µM and inactive = higher.
Write down one outcome, taken from active, inactive

Q: Please share the test call associated with "CCN(CCCl)c1cc(CN(C)C)cc(NC(=O)c2ccc(C(=O)Nc3cccc(CN(C)C)c3)cc2)c1" .
Result: active

Q: Please share the test call associated with O=C1CC(O)c2cscc21 (configuration not stated) .
Result: inactive

Q: Please share the test call associated with "COC(=O)/C(=C(\C)NC(C)=O)c1c(C(=O)OC)[nH]c2ccccc12" .
Result: inactive

Q: Please share the test call associated with "c1ccc(-c2c3c(nc4c2CC[C@H]4NC2=NCCN2)[C@@H](NC2=NCCN2)CC3)cc1" .
Result: inactive

Q: Please share the test call associated with "Oc1ccc(Cl)cc1-c1nc(S)nc(-c2ccccc2)c1Cl" .
Result: inactive

Q: Please share the test call associated with c1ccc(COC2C3COC(O3)C(OCc3ccccc3)C2OCc2ccccc2)cc1 (configuration not stated) .
Result: inactive

Q: Please share the test call associated with Cc1cn(C2CC(O)C(Cn3nncc3Cn3cnc4c(N)ncnc43)O2)c(=O)[nH]c1=O (configuration not stated) .
Result: inactive

Q: Please share the test call associated with "O=C1/C(=C/c2cc3c(=O)c4ccccc4sc3s2)NC(=S)N1c1ccccc1" .
Result: inactive

Q: Please share the test call associated with "O=C(O)CSCc1cccc2ccccc12" .
Result: inactive

Q: Please share the test call associated with "COc1ccc(/C=C\c2cc(OC)c(OC)c(OC)c2)c(O)c1O" .
Result: active

Q: Please share the test call associated with "Cc1ccc(/C=C/C(=O)c2sc(C(N)=S)nc2C)cc1" .
Result: inactive

Q: Please share the test call associated with "O=C1NC2(CCCCC2)C(=O)N1CCN(CCCl)CCCl" .
Result: inactive

Q: Please share the test call associated with COC(=O)c1ccc2c(c1)CC1(C2)Cc2ccccc2C1=O (configuration not stated) .
Result: inactive

Q: Please share the test call associated with CCOC(=O)C1CCCc2sc(N)c(C#N)c21 (configuration not stated) .
Result: inactive

Q: Please share the test call associated with COC(=O)C12C3C4C1C1C2C3C41C(=O)N(C(C)C)C(C)C (configuration not stated) .
Result: inactive

Q: Please share the test call associated with "COc1ccc2c(c1OC)C(=O)c1cnccc1C2=O" .
Result: inactive

Q: Please share the test call associated with "COc1ccc(/C=C2\Sc3nnc(C)n3N=C2c2cc(F)c(Cl)cc2Cl)cc1OC" .
Result: inactive

---

test system: Malme-3M; test: NCI tumour cell line growth inhibition, 48 h
Active and inactive are the calls of the source. Rule as the data show it: active = GI50 up to about 1.1 µM and inactive = higher.
Write down one outcome, taken from active, inactive

Observe how each entry below is paired with its result.
CCC12CC(c3ccccc3)C(C(=O)N1)C(=O)N2 (stereo not drawn) ... inactive
COC(=O)[C@]1(c2cc3ccccc3[nH]2)CC2CN(CC(=O)N(C)OC)C1CC2(OC)OC (stereo partly drawn) ... inactive

Q: Please share the test call associated with "C=CCOC(=O)c1c(C)[n+]([O-])c2cc(Cl)c(Cl)cc2[n+]1[O-]" .
Result: inactive

Q: Please share the test call associated with "CN1C(=O)C(=CNc2ccccc2Cl)C(=O)N(C)C1=O" .
Result: inactive

Q: Please share the test call associated with "COc1cccc(-c2cc(O)c3cc(Cl)cnc3n2)c1" .
Result: inactive

Q: Please share the test call associated with "Cc1ccc(C(c2c(O)c3ccccc3n(-c3ccccc3)c2=O)c2c(O)c3ccccc3n(-c3ccccc3)c2=O)cc1" .
Result: inactive

Q: Please share the test call associated with "COc1ccc(Cc2cc(Cc3ccc(OC)cc3)cc(Cc3ccc(OC)cc3)c2)cc1" .
Result: inactive

---

Reported GI50 values follow for various compounds
test system: OVCAR-5; test: NCI tumour cell line growth inhibition, 48 h
Calls of active or inactive are those of the source. Cut-off read from the data, not from the text of the source: active = GI50 up to about 1.1 µM and inactive = higher.

COc1cc(C2c3cc4c(cc3OC(C)(O)C2C)OCO4)cc(OC)c1OC (stereo unspecified) ... > 100 µM (inactive)
COc1ccc(/C=C2\Sc3nnc(C)n3N=C2c2cc(F)c(Cl)cc2Cl)cc1OC ... 15.6 µM (inactive)
C/C(Cc1ccc2c(c1)OCO2)=N\N=c1\sc2ccccc2n1C ... > 100 µM (inactive)

Q: Requested field: GI50. Item: "COc1ccc2c(c1)CCCN2S(=O)(=O)c1ccccc1[N+](=O)[O-]"
Result: 84.3 µM (inactive)

Q: Requested field: GI50. Item: "COc1ccc(Cc2cc(Cc3ccc(OC)cc3)cc(Cc3ccc(OC)cc3)c2)cc1"
Result: > 100 µM (inactive)

Q: Requested field: GI50. Item: "O=c1oc2cc(O)ccc2cc1-c1nc2ccccc2s1"
Result: 30.8 µM (inactive)

Q: Requested field: GI50. Item: CC(C)(C)C(=O)OCC1CCC(n2cnc3c(=O)[nH]c(N)nc32)O1 (stereo unspecified)
Result: > 100 µM (inactive)

Q: Requested field: GI50. Item: "O=C(Nc1cc(Cl)c(Cl)cc1Cl)C(=O)C1C(=O)NC(=S)NC1=O"
Result: > 100 µM (inactive)

Q: Requested field: GI50. Item: "Cn1c(=O)c(-c2ccccc2)c(O)c2ccccc21"
Result: > 100 µM (inactive)

Q: Requested field: GI50. Item: "COc1ccc(-c2cc(O)c3cccnc3n2)cc1"
Result: > 100 µM (inactive)

Q: Requested field: GI50. Item: "C/C(=N\Nc1ccc2ccccc2n1)c1ccccc1O"
Result: > 100 µM (inactive)

---

Reported GI50 values follow for various molecules
tested on: SK-MEL-28; assay: NCI tumour cell line growth inhibition, 48 h
Calls of active or inactive are those of the source. Rule as the data show it: active = GI50 up to about 1.1 µM and inactive = higher.

c1ccc(C(=NCCC2CNc3ccccc32)c2ccccc2)cc1 (stereo not given) ... > 100 µM (inactive)
CCN(CC(O)COc1ccc2c(c1)[n+]([O-])nc(N)[n+]2[O-])C(C)=O (stereo not given) ... > 100 µM (inactive)
O=C(O)Cc1cccc2c(=O)cc(-c3ccccc3)oc12 [MITOFLAXONE] ... > 250 µM (inactive)

Q: Give GI50 (SK-MEL-28) of the following molecule: "COc1ccc(Cc2nc3cc(C(F)(F)F)ccc3n2CCCN(C)C)cc1"
Result: 18 µM (inactive)

Q: Give GI50 (SK-MEL-28) of the following molecule: CC1=CC(=O)N(c2c(C)cccc2Cl)C(C)N1 (stereo not given)
Result: > 100 µM (inactive)

---

tested on: UO-31; assay: NCI tumour cell line growth inhibition, 48 h
The source made the active and inactive calls. No stated cut-off is given here; in the data, active = GI50 up to about 1.1 µM and inactive = higher.
Write down one outcome, taken from active, inactive

COc1ccc(/C=C/C2=NN(c3cccc(S(=O)(=O)O)c3)C3(C2)SCC(=O)N3c2nc3ccccc3s2)cc1 (stereo unspecified) ... inactive
CC1(C)OCN(c2ccc(S(N)(=O)=O)cc2)Cn2c1nc1ccccc12 ... inactive
CC(=O)/C(=C/c1ccccc1F)C(=O)c1ccccc1 ... inactive
COc1ccc(/C=C2\Sc3nnc(C)n3N=C2c2cc(F)c(Cl)cc2Cl)cc1OC ... inactive
CC1OC(OC2C[C@](O)(C(=O)CF)Cc3c(O)c4c(c(O)c32)C(=O)c2ccccc2C4=O)CC(N)C1O (stereo partly specified) ... active

Q: Please share the test call associated with "O=C(O)C1SCCS1" .
Result: inactive

---

system: ACHN; assay: NCI tumour cell line growth inhibition, 48 h
Activity calls are given as the source filed them. No stated cut-off is given here; in the data, active = GI50 up to about 1.1 µM and inactive = higher.
Write down one outcome, taken from active, inactive

Observe how each entry below is paired with its result.
Cc1ccc2nnc(NS(=O)(=O)c3cc(C)c(Cl)cc3S)n2n1 ... inactive
CC12CCCCC1=[N+]([O-])C(C)(C)N2O (stereo not given) ... inactive
Cc1cn(C2CC(n3cc(Cn4cc(I)c(=O)[nH]c4=O)nn3)C(CO)O2)c(=O)[nH]c1=O (stereo not given) ... inactive

Q: Please share the test call associated with "Cn1c(=O)c2/c(n(C)c1=O)=N\C=c1\c(=O)n(C)c(=O)n(C)\c1=N\C=2" .
Result: inactive

Q: Please share the test call associated with CC1=C(Cl)C=CP(=O)(Oc2ccccc2)C1 (stereo not given) .
Result: inactive

Q: Please share the test call associated with "COc1cc2c(cc1OCCCCOc1cc(-c3ccc(F)cc3)nc(C)n1)N=C[C@@H]1CCCN1C2=O" .
Result: active

Q: Please share the test call associated with CC1OC(OC2C[C@](O)(C(=O)CF)Cc3c(O)c4c(c(O)c32)C(=O)c2ccccc2C4=O)CC(N)C1O (stereo not given in full) .
Result: active

Q: Please share the test call associated with C=C1C(=O)OC2CC3(C)C=CC(=O)C(=C)C3CC12 (stereo not given) .
Result: inactive

Q: Please share the test call associated with O=C1CC2[C@@H](N3CCCC3)CCC(N1Cc1ccccc1)C2(O)O (stereo not given in full) .
Result: inactive

Q: Please share the test call associated with "Cc1ccccc1/N=C/N(C)C" .
Result: inactive
